target: human mAChR M4 (Homo sapiens, UniProt P08173); construct: expressed in transfected cells; host or cells: CHO-K1 (ATCC), stably expressing hM4 and Gqi5; assay: mAChR M4 cell-based functional assay: calcium flux (Fluo-4, FDSS), positive allosteric modulator activity on the EC20 acetylcholine response, hM4-Gqi5 CHO-K1 cells; details: human M4; PAM activity on EC20 acetylcholine response, calcium flux; read-out: Human M4 EC50
Sequence (P08173 whole entry): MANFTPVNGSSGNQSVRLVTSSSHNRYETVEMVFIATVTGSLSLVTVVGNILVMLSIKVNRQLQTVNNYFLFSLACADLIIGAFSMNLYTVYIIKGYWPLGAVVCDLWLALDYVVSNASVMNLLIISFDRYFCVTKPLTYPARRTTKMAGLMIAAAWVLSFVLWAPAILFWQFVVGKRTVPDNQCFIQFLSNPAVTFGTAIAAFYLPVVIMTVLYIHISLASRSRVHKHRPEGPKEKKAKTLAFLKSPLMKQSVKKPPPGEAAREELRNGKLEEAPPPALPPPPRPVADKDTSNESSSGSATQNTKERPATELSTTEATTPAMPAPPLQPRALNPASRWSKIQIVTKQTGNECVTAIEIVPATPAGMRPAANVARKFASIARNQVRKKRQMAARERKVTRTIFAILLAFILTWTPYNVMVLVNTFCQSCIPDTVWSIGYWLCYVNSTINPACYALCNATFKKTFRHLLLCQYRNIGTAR
Readout Kind: EC50 (nM)
Report the value in nM with no unit label.

Examples with answers:
Fc1ccc2ncnc(N3CCc4ncc(-c5cnn(C6CC6)c5)cc4C3)c2c1 [Compound 1]    130
Cc1ncc(-c2cnc3c(c2)CN(c2nc(Cl)nc4ncccc24)CC3)s1 [Compound 35]    610
Fc1ccc2nc(C(F)(F)F)nc(N3CCc4ncc(-c5ccn(C6CC6)n5)cc4C3)c2c1 [Compound 65]    1380
Cc1ccc(-c2cnc3c(c2)CN(c2nc(C)nc4ccc(F)cc24)CC3)cn1 [Compound 26]    130
Cc1ccc2ncnc(N3CCc4ncc(-c5ccccc5C)cc4C3)c2c1 [Compound 298]    1300
Cc1ccc(-c2cnc3c(c2)CN(c2ncnc4ccc(Cl)cc24)CC3)cn1 [Compound 43]    70

What value of EC50 has been recorded for this entry: Fc1ccc2ncnc(N3CCc4ncc(N5CCOC(c6cccnc6)C5)cc4C3)c2c1 (stereo not drawn) [Compound 229]
510

Query (compound): OC1(C2CC2)CN(c2nc(N3CCc4ncc(C(F)(F)F)cc4C3)c3cc(F)ccc3n2)C1 [Compound 201] ; field requested: EC50
290

Dear colleague, I am looking for the recorded EC50 of the following compound: Cc1nc(N2Cc3cc(C(F)(F)F)cnc3C(C)(C)C2)c2cc(F)ccc2n1 [Compound 118]
8390

Fill blank: measured EC50 of the compound Fc1cc2c(N3CCc4ncc(C(F)(F)F)cc4C3)nc(Cl)nc2cc1Cl [Compound 171] is ____.
1280

Any idea what EC50 was measured for CC(C)n1nccc1-c1cnc2c(c1)CN(c1ncnc3cc(F)c(F)cc13)CC2 [Compound 268] ?
190

Just for reference, patent US20250026752A1 is where these values come from.
